assay: In vivo pharmacokinetic study, plasma; conditions: female, athymic nude, mouse, in vivo, po, 30 mg/kg
measured_parameter: half-life (h)

* CC(C)C(C(=O)NCCCN1CC=C(c2ccc(Cl)cc2)CC1)c1ccc(F)cc1 (stereo not shown) | 4.01

---

experiment: Cytotoxicity in the absence of DSB ligands (CT), Hoechst cell count; type: cell-based, human; conditions: human, EJ-DR U2OS cells; no DSB ligands; Table 1; read-out: Cytotoxicity IC50
measured_parameter: IC50 at 96 h (µM)

• CC(C)C1c2ccc(F)cc2CCC1(O)CCN1CC(Oc2ccc(Cl)cn2)CC1CO (stereo not drawn) = 14.8
• COCC(=O)O[C@]1(CCN(C)CCCc2nc3ccccc3[nH]2)CCc2cc(F)ccc2[C@@H]1C(C)C = 10.5
• CC(C)C(C(=O)NCCCN1CC=C(c2ccc(Cl)cc2)CC1)c1ccc(F)cc1 (stereo not drawn) = 17.9

---

target: T type Cav 3.2 (Homo sapiens, UniProt O95180); test: Calcium channel blocking study, T-type Cav3.2; conditions: HEK293 cells stably expressing the channel
Sequence (O95180 whole entry): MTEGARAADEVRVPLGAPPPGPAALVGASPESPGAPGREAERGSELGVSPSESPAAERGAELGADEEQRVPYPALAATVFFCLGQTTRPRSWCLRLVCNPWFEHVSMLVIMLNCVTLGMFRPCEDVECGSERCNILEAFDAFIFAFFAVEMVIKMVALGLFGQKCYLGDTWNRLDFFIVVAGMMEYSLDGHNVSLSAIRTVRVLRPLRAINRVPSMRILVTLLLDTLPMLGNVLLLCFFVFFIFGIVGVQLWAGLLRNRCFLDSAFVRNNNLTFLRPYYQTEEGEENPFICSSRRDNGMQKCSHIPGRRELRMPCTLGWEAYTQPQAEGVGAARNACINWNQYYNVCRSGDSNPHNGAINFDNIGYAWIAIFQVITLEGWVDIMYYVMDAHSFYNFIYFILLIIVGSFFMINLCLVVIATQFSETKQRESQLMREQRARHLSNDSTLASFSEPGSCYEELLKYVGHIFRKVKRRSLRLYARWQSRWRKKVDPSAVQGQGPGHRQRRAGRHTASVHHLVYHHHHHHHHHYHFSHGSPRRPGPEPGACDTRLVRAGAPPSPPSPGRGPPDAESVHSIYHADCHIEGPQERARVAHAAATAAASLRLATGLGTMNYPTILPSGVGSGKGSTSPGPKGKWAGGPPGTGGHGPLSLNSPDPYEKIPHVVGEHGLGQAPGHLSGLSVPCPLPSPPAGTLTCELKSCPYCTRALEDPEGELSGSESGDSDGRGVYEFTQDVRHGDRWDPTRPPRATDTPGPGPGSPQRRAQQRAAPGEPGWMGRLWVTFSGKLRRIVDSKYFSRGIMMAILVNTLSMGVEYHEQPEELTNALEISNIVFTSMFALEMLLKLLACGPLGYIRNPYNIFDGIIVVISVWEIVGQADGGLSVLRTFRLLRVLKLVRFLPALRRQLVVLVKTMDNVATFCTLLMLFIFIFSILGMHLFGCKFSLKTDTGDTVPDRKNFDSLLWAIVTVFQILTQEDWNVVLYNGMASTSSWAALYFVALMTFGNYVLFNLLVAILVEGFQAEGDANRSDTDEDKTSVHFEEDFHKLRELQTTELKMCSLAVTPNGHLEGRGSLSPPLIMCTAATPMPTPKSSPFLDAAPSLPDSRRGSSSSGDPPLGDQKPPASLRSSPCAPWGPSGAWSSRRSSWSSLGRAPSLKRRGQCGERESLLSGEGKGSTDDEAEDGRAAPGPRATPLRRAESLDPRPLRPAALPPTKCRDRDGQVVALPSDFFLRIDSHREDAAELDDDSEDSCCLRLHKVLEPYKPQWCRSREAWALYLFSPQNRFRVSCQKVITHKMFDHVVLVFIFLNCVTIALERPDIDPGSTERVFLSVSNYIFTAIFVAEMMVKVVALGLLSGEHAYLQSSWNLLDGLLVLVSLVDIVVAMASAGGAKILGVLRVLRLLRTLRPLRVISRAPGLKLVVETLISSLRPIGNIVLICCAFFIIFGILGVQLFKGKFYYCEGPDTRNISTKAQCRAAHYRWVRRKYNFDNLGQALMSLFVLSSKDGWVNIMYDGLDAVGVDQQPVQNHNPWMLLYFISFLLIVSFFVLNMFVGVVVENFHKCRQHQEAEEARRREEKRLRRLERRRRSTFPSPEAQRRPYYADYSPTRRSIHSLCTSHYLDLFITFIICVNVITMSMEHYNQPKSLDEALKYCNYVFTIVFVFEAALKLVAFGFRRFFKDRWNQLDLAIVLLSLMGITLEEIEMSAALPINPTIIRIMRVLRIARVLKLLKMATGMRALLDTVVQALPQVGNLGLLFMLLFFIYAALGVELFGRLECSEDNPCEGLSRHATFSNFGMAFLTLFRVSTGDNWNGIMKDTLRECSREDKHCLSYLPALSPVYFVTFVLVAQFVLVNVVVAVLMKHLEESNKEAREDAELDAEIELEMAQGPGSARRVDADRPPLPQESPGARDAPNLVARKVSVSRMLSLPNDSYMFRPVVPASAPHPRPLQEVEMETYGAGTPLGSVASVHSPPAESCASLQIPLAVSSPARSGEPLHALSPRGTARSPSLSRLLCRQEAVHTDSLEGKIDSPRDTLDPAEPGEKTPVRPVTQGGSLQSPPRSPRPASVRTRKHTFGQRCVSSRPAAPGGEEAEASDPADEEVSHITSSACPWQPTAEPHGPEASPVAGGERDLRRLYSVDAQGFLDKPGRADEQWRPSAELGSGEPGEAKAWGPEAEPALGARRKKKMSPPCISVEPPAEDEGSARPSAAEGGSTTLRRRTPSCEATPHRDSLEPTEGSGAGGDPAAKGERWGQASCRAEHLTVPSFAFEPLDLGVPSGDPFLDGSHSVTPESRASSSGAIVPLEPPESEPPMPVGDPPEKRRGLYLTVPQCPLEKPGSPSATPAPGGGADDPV
pIC50: −log10 of the molar value.
Some compounds, each annotated with its measured pIC50.
measured_parameter: pIC50

* CC(C)C1c2ccc(F)cc2CCC1(O)CCN1CC(Oc2ccc(Cl)cn2)CC1CO (centres unmarked) | 5.25
* CC(C)C(C(=O)NCCCN1CC=C(c2ccc(Cl)cc2)CC1)c1ccc(F)cc1 (centres unmarked) | 6.05

---

As a worked illustration, we turn to IC50 data collected for CYP2D6 (Homo sapiens, UniProt P10635).
measured_parameter: IC50

* COCC(=O)O[C@]1(CCN(C)CCCc2nc3ccccc3[nH]2)CCc2cc(F)ccc2[C@@H]1C(C)C [Mibefradil, mibefradil] | 0.6 µM
* O=C(NC(CCN1CC(Oc2nccc3ccccc23)CC1CO)c1ccc(F)cc1)C1CCC(F)(F)CC1 (stereo not shown) [YU253106] | 2.3 µM
* COCC(=O)OC1(CCN2CC(Oc3nccc4ccccc34)CC2CO)CCc2cc(F)ccc2C1C(C)C (stereo not shown) [YU252376] | 3.5 µM
* CC(C)C(C(=O)NCCCN1CC=C(c2ccc(Cl)cc2)CC1)c1ccc(F)cc1 (stereo not shown) [YU252386] | 0.87 µM

---

Assay: In vivo pharmacokinetic study, brain tissue
Conditions: female, athymic nude, mouse, brain, po, 30 mg/kg
Description: These measurements were used to calculate various pharmacokinetic parameters critical to bioavailability including time to reach maximum concentration (tmax), maximum concentration achieved (Cmax), and half-life (t1/2) (Figure 5C, 5D, Supplementary Table 1). Compound concentrations were measured at these time-points using Liquid Chromatography with tandem mass spectrometry (LC-MS-MS). […] Plasma and brain tissue concentration were measured using mass spectrometry (MS).
measured_parameter: half-life

* COCC(=O)O[C@]1(CCN(C)CCCc2nc3ccccc3[nH]2)CCc2cc(F)ccc2[C@@H]1C(C)C | ~8 h

---

assay: In vivo pharmacokinetic study, brain tissue; details: female, athymic nude, mouse, in vivo, po, 30 mg/kg
measured_parameter: half-life

- CC(C)C(C(=O)NCCCN1CC=C(c2ccc(Cl)cc2)CC1)c1ccc(F)cc1 (stereo not shown): ~2.5 h

---

Some molecules, each annotated with its measured selectivity ratio.
target: CYP2D6 (Homo sapiens, UniProt P10635); construct: tissue Eurofins Scientific; host or cells: human liver microsomes; assay: Cytochrome P450 inhibition assay in human liver microsomes, CYP2D6; format: in vitro ADME; conditions: human, human liver microsomes; ratio; read-out: SICYP 2D6 (selectivity index of CYP, CYP2D6 IC50 to alt-NHEJ IC50), called fold decrease in CYP2D6 inhibition
Sequence (P10635 whole entry): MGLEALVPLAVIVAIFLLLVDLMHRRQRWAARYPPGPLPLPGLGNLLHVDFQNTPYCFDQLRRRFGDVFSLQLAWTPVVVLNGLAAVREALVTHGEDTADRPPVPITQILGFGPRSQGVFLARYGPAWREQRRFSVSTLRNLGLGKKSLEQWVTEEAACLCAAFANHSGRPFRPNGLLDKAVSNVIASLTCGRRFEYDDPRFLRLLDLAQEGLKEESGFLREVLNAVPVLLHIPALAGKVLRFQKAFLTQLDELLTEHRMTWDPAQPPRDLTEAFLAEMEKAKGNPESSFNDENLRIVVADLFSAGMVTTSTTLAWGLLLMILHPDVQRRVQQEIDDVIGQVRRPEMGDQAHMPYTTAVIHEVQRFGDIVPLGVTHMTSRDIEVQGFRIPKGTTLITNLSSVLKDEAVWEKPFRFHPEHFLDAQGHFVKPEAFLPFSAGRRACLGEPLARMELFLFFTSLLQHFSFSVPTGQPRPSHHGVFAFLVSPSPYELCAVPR
measured_parameter: selectivity ratio

• O=C(NC(CCN1CC(Oc2nccc3ccccc23)CC1CO)c1ccc(F)cc1)C1CCC(F)(F)CC1 (stereo not drawn) = 1.64
• CC(C)C(C(=O)NCCCN1CC=C(c2ccc(Cl)cc2)CC1)c1ccc(F)cc1 (stereo not drawn) = 0.82

Every entry's value here was drawn from paper PMC8092340.
